# target: recombinant human AKR1C3 (Homo sapiens, UniProt P42330)
# Construct: His6 (hexahistidine) (C); made in house; host or cells: E. coli BL21(DE3)
# Sequence (P42330 1-323): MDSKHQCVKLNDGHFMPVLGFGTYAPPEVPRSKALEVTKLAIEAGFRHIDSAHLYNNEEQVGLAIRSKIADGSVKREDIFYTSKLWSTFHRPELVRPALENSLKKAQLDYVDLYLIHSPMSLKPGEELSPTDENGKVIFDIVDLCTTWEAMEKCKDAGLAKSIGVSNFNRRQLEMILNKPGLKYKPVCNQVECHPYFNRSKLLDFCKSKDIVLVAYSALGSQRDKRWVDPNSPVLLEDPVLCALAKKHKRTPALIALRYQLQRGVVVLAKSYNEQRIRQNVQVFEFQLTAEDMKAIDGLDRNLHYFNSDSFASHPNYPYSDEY
# experiment_notes: Kinetics assay: metabolism of prodrugs by recombinant human AKR1C3
# Assay type: biochemical
# test_context: NADPH, pH 7.4, 37° C.
Cut-off 30 s⁻¹ on kcat, inclusive. At or above means fulfilled; below means not fulfilled.

molecule="O=C(c1cc([N+](=O)[O-])cc([N+](=O)[O-])c1N(CCBr)CCBr)N1CCc2ccccc2C1 [SN34947, reference compound]" class_assignment="not fulfilled"
molecule="N#Cc1cccc2c1CCN(C(=O)c1cc([N+](=O)[O-])cc([N+](=O)[O-])c1N(CCBr)CCBr)C2 [SN34951, reference compound]" class_assignment="not fulfilled"
molecule="CN1CCN(C(=O)c2cc([N+](=O)[O-])ccc2N(CCBr)CCOS(C)(=O)=O)CC1 [SN34454, reference compound]" class_assignment="not fulfilled"
molecule="CS(=O)(=O)OCCN(CCBr)c1c(C(=O)NCCO)cc([N+](=O)[O-])cc1[N+](=O)[O-] [PR-104A, reference compound]" class_assignment="not fulfilled"
molecule="O=[N+]([O-])c1ccc(N(CCBr)CCBr)c(S(=O)(=O)N2CCN(CC(O)CO)CC2)c1 (stereo not shown)" class_assignment=fulfilled

Shift focus to the following entry.
query: Textbook exercise: given the entry CN1CCN(C(=O)c2cc([N+](=O)[O-])ccc2N(CCBr)CCBr)CC1 [SN34118, reference compound] , state whether its kcat is greater than or equal to 30 s⁻¹.
result: not fulfilled

* * *

Recorded pIC50, one value per entry.
# Tested on: wild-type H460 lung cancer cells
# experiment_notes: Anti-proliferative IC50 assay, wild-type H460
# Type: cell-based, human
# test_context: Homo sapiens, NCI-H460, read-out: H460-WT Anti-proliferative IC50
Hey, just a heads up that pIC50 is the negative log base 10 of the concentration in molar.

molecule="CN1CCN(C(=O)c2cc([N+](=O)[O-])ccc2N(CCBr)CCOS(C)(=O)=O)CC1 [SN34454, reference compound]" target="wild-type H460 lung cancer cells" observation_type=pIC50 observed_measurement=6.39
molecule="CN1CCN(S(=O)(=O)c2cc([N+](=O)[O-])ccc2N(CCBr)CCOS(C)(=O)=O)CC1 [Compound 602]" target="wild-type H460 lung cancer cells" observation_type=pIC50 observed_measurement=8.40
molecule="CN1CCN(S(=O)(=O)c2cc([N+](=O)[O-])ccc2N(CCOS(C)(=O)=O)CCOS(C)(=O)=O)CC1 [Compound 641]" target="wild-type H460 lung cancer cells" observation_type=pIC50 observed_measurement=8.52

Moving on to another molecule below.
query: Give recorded pIC50. CN1CCN(C(=O)c2cc([N+](=O)[O-])cc([N+](=O)[O-])c2N(CCBr)CCOS(C)(=O)=O)CC1 [SN33540, reference compound]
result: 6.27

* * *

# Test system: SNU398 hepatocellular carcinoma cells engineered to over-express AKR1C3
# experiment_notes: Anti-proliferative IC50 assay, SNU398 over-expressing AKR1C3
# Format: cell-based, human
# test_context: Homo sapiens, SNU-398, read-out: SNU398-AKR1C3 Anti-proliferative IC50
Recorded pIC50, one value per entry.
Hey, just a heads up that pIC50 is the negative log base 10 of the concentration in molar.

Solved entries:
compound=CN1CCN(S(=O)(=O)c2cc([N+](=O)[O-])ccc2N(CCBr)CCBr)CC1 observation_type=pIC50 observed_measurement=7.82
compound="CS(=O)(=O)OCCN(CCBr)c1ccc([N+](=O)[O-])cc1S(=O)(=O)N1CCN(CC(O)CO)CC1 (stereo not shown)" observation_type=pIC50 observed_measurement=7.55
compound="CN1CCN(C(=O)c2cc([N+](=O)[O-])cc([N+](=O)[O-])c2N(CCBr)CCOS(C)(=O)=O)CC1 [SN33540, reference compound]" observation_type=pIC50 observed_measurement=6.07

Moving on to another compound below.
query: Give recorded pIC50. "CN1CCN(S(=O)(=O)c2cc([N+](=O)[O-])ccc2N(CCOS(C)(=O)=O)CCOS(C)(=O)=O)CC1"
result: 8.40

* * *

Recorded IC50, one value per entry.
# Test system: wild-type HCT116 colon cancer cells
# experiment_notes: Anti-proliferative IC50 under oxic and anoxic conditions
# Type: cell-based, human
# test_context: Homo sapiens, HCT-116; anoxic (<0.001% O2); read-out: HCT116-WT Anti-proliferative IC50 Anoxic
State the answer as a number, implicitly in µM.

Solved entries:
compound="CS(=O)(=O)OCCN(CCBr)c1c(C(=O)NCCO)cc([N+](=O)[O-])cc1[N+](=O)[O-] [PR-104A, reference compound]" observation_type=IC50 unit_abbreviation=µM observed_measurement=2.83
compound="CN1CCN(C(=O)c2cc([N+](=O)[O-])cc([N+](=O)[O-])c2N(CCBr)CCOS(C)(=O)=O)CC1 [SN33540, reference compound]" observation_type=IC50 unit_abbreviation=µM observed_measurement=5.1
compound=CN1CCN(S(=O)(=O)c2cc([N+](=O)[O-])ccc2N(CCOS(C)(=O)=O)CCOS(C)(=O)=O)CC1 observation_type=IC50 unit_abbreviation=µM observed_measurement=2.52

Moving on to another compound below.
query: Give recorded IC50. "CN1CCN(S(=O)(=O)c2cc([N+](=O)[O-])ccc2N(CCBr)CCOS(C)(=O)=O)CC1"
result: 3.51

* * *

# Tested on: HCT116 colon cancer cells engineered to over-express AKR1C3
# experiment_notes: Anti-proliferative IC50 assay (SRB), HCT116 over-expressing AKR1C3
# Format: cell-based, human
# test_context: HCT116-WT vs HCT116-AKR1C3
Recorded IC50 Ratio WT:AKR1C3, one value per entry.
I'd appreciate a reply containing only the number, no unit.

Solved entries:
compound="CN1CCN(C(=O)c2cc([N+](=O)[O-])ccc2N(CCBr)CCBr)CC1 [SN34118, reference compound]" observed_measurement=98
compound="CS(=O)(=O)OCCN(CCBr)c1ccc([N+](=O)[O-])cc1S(=O)(=O)N1CCN(CC(O)CO)CC1 (centres unmarked) [Compound 605]" observed_measurement=687
compound="CS(=O)(=O)OCCN(CCBr)c1c(C(=O)NCCO)cc([N+](=O)[O-])cc1[N+](=O)[O-] [PR-104A, reference compound]" observed_measurement=50
compound="CCN1CCN(S(=O)(=O)c2cc([N+](=O)[O-])ccc2N(CCOS(C)(=O)=O)CCOS(C)(=O)=O)CC1 [Compound 642]" observed_measurement=1930
compound="CS(=O)(=O)OCCN(CCOS(C)(=O)=O)c1ccc([N+](=O)[O-])cc1S(=O)(=O)N1CCNCC1 [Compound 640]" observed_measurement=469
compound="CN1CCN(S(=O)(=O)c2cc([N+](=O)[O-])ccc2N(CCOS(C)(=O)=O)CCOS(C)(=O)=O)CC1 [Compound 641]" observed_measurement=2955

Moving on to another compound below.
query: Give recorded IC50 Ratio WT:AKR1C3. O=C(c1cc([N+](=O)[O-])cc([N+](=O)[O-])c1N(CCBr)CCBr)N1CCc2ccccc2C1 [SN34947, reference compound]
result: 28

* * *

Recorded IC50, one value per entry.
# Tested on: HCT116 colon cancer cells engineered to over-express AKR1C3
# experiment_notes: Anti-proliferative IC50 assay (SRB), HCT116 over-expressing AKR1C3
# Assay type: cell-based, human
# test_context: read-out: HCT116-AKR1C3 + AKR1C3 Inhibitor IC50; with 3 μM SN34037
State the answer as a number, implicitly in µM.

query: Give recorded IC50. CN1CCN(C(=O)c2cc([N+](=O)[O-])ccc2N(CCBr)CCBr)CC1 [SN34118, reference compound]
result: 23.9

* * *

# Tested on: wild-type SNU398 hepatocellular carcinoma cells
# experiment_notes: Anti-proliferative IC50 assay, wild-type SNU398
# Format: cell-based
# test_context: Homo sapiens, SNU-398; read-out: SNU398-WT Anti-proliferative IC50
observation_type: pIC50
Hey, just a heads up that pIC50 is the negative log base 10 of the concentration in molar.

compound=CS(=O)(=O)OCCN(CCOS(C)(=O)=O)c1ccc([N+](=O)[O-])cc1S(=O)(=O)N1CCNCC1 observation_type=pIC50 observed_measurement=5.07

Moving on to another compound below.
query: Give recorded pIC50. CS(=O)(=O)OCCN(CCOS(C)(=O)=O)c1ccc([N+](=O)[O-])cc1S(=O)(=O)N1CCN(CC(O)CO)CC1 (centres unmarked)
result: 4.13
